src = patent US20230357272A1

- EXPERIMENTAL PROTOCOL: Pharmacokinetic study of female BALB/c nude mice (plasma and tumor)
- Assay type: in vivo
- TEST PARAMETERS: female, BALB/c nude, mouse, oral; plasma, 10 mg/kg intragastric, 8.00 h; read-out: Mean drug concentration
PROPERTY LABEL: concentration at 8 h

INSERT INTO measurements (compound, property_label, reading) VALUES
  ('C=CC(=O)N1CCN2c3c(c(=O)n(-c4c(C)ccnc4C(C)C)c4c(=O)n(-c5c(N)c(Cl)cc(Cl)c5F)c(C(F)(F)F)cc34)OCC[C@H]2C1', 'concentration at 8 h', '30.6 nM');

---

- EXPERIMENTAL PROTOCOL: Pharmacokinetic study of female BALB/c nude mice (plasma and tumor)
- Assay type: in vivo
- TEST PARAMETERS: female, BALB/c nude, mouse, oral; tumor, 3 mg/kg intragastric, 1.00 h; read-out: Mean drug concentration
PROPERTY LABEL: concentration at 1 h

INSERT INTO results (compound, reading) VALUES
  ('C=CC(=O)N1CCN2c3c(c(=O)n(-c4c(C)ccnc4C(C)C)c4c(=O)n(-c5c(N)c(Cl)cc(Cl)c5F)c(C(F)(F)F)cc34)OCC[C@H]2C1', '136 nM');

---

- EXPERIMENTAL PROTOCOL: Pharmacokinetic study of female BALB/c nude mice (plasma and tumor)
- Assay type: in vivo
- TEST PARAMETERS: female, BALB/c nude, mouse, oral; tumor, 1 mg/kg intragastric, 4.00 h; read-out: Mean drug concentration
PROPERTY LABEL: concentration at 4 h (nM)

INSERT INTO results (compound, reading) VALUES
  ('C=CC(=O)N1CCN2c3c(c(=O)n(-c4c(C)ccnc4C(C)C)c4c(=O)n(-c5c(N)c(Cl)cc(Cl)c5F)c(C(F)(F)F)cc34)OCC[C@H]2C1', 2.04);

---

- EXPERIMENTAL PROTOCOL: Pharmacokinetic study of female BALB/c nude mice (plasma and tumor)
- Format: in vivo
- TEST PARAMETERS: female, BALB/c nude, mouse, po; tumor, 10 mg/kg intragastric
PROPERTY LABEL: Tmax (h)

INSERT INTO measurements (molecule, units_of_measure, reading) VALUES
  ('C=CC(=O)N1CCN2c3c(c(=O)n(-c4c(C)ccnc4C(C)C)c4c(=O)n(-c5c(N)c(Cl)cc(Cl)c5F)c(C(F)(F)F)cc34)OCC[C@H]2C1 [Compound 1D]', 'h', 1);

---

- EXPERIMENTAL PROTOCOL: Pharmacokinetic study of female BALB/c nude mice (plasma and tumor)
- Assay type: in vivo
- TEST PARAMETERS: female, BALB/c nude, mouse, po; plasma, 3 mg/kg intragastric; read-out: Cmax
PROPERTY LABEL: Cmax (nM)

INSERT INTO results (molecule, units_of_measure, reading) VALUES
  ('C=CC(=O)N1CCN2c3c(c(=O)n(-c4c(C)ccnc4C(C)C)c4c(=O)n(-c5c(N)c(Cl)cc(Cl)c5F)c(C(F)(F)F)cc34)OCC[C@H]2C1 [Compound 1D]', 'nM', 191);

---

- EXPERIMENTAL PROTOCOL: Pharmacokinetic study of female BALB/c nude mice (plasma and tumor)
- Assay type: in vivo
- TEST PARAMETERS: female, BALB/c nude, mouse, po; tumor, 3 mg/kg intragastric
PROPERTY LABEL: half-life (h)

INSERT INTO assay_data (compound, units_of_measure, reading) VALUES
  ('C=CC(=O)N1CCN2c3c(c(=O)n(-c4c(C)ccnc4C(C)C)c4c(=O)n(-c5c(N)c(Cl)cc(Cl)c5F)c(C(F)(F)F)cc34)OCC[C@H]2C1', 'h', 1.28);
